test: Solubility in H2O; format: physicochemical; settings: water
The reader will find reported solubility values listed item by item below.
Measurement type: solubility

[[record]]
molecule = "CCCCCCn1sc(Cl)c(Cl)c1=O"
result = "143 µg/mL"

[[record]]
molecule = "O=c1c(Cl)c(Cl)sn1CCc1ccccc1"
result = "96 µg/mL"

[[record]]
molecule = "O=c1c(Cl)c(Cl)sn1C1CCCCC1"
result = "91 µg/mL"

[[record]]
molecule = "CCCCCCCn1sc(Cl)c(Cl)c1=O"
result = "25 µg/mL"

[[record]]
molecule = "O=c1c(Cl)c(Cl)sn1Cc1ccccc1"
result = "195 µg/mL"


---

test system: Aspergillis niger (A.n.); experiment: Zone of inhibition, polyvinyl chloride film; format: cell-based; conditions: PVC film, 0.5%
Measurement type: Zone of Inhibition (mm)

[[record]]
molecule = "O=c1c(Cl)c(Cl)sn1CCc1ccccc1"
numeric_readout = 4.8

[[record]]
molecule = "O=c1c(Cl)c(Cl)sn1C1CCCCC1"
numeric_readout = 5.3

[[record]]
molecule = "O=c1c(Cl)c(Cl)sn1Cc1ccccc1"
numeric_readout = 4.3

[[record]]
molecule = "CCCCCCCn1sc(Cl)c(Cl)c1=O"
numeric_readout = 0

[[record]]
molecule = "CCCCCCn1sc(Cl)c(Cl)c1=O"
numeric_readout = 3.8

[[record]]
molecule = "CCCCCCCCn1sc(Cl)c(Cl)c1=O"
numeric_readout = 0


---

system: Aerobasidium pullulans (A.p); assay: Growth of fungus on polyvinyl chloride film; assay type: cell-based; design: key: 0: zero (no growth); 5: five (heavy growth); conditions: PVC film, 0.5%
Measurement type: Growth on Film

[[record]]
molecule = "O=c1c(Cl)c(Cl)sn1CCc1ccccc1"
measurement_type = "Growth on Film"
numeric_readout = 0

[[record]]
molecule = "O=c1c(Cl)c(Cl)sn1Cc1ccccc1"
measurement_type = "Growth on Film"
numeric_readout = 0

[[record]]
molecule = "CCCCCCCCn1sc(Cl)c(Cl)c1=O"
measurement_type = "Growth on Film"
numeric_readout = 1

[[record]]
molecule = "CCCCCCCn1sc(Cl)c(Cl)c1=O"
measurement_type = "Growth on Film"
numeric_readout = 0

[[record]]
molecule = "O=c1c(Cl)c(Cl)sn1C1CCCCC1"
measurement_type = "Growth on Film"
numeric_readout = 0

[[record]]
molecule = "CCCCCCn1sc(Cl)c(Cl)c1=O"
measurement_type = "Growth on Film"
numeric_readout = 0


---

system: Aerobasidium pullulans (A.p); assay: Growth of fungus on polyvinyl chloride film; format: cell-based; settings: PVC film, 0.1%
The reader will find reported Growth on Film values listed item by item below.
Measurement type: Growth on Film

[[record]]
molecule = "CCCCCCCCn1sc(Cl)c(Cl)c1=O"
numeric_readout = 3

[[record]]
molecule = "O=c1c(Cl)c(Cl)sn1Cc1ccccc1"
numeric_readout = 0

[[record]]
molecule = "CCCCCCCn1sc(Cl)c(Cl)c1=O"
numeric_readout = 2

[[record]]
molecule = "O=c1c(Cl)c(Cl)sn1C1CCCCC1"
numeric_readout = 0

[[record]]
molecule = "O=c1c(Cl)c(Cl)sn1CCc1ccccc1"
numeric_readout = 0

[[record]]
molecule = "CCCCCCn1sc(Cl)c(Cl)c1=O"
numeric_readout = 0


---

test system: Aspergillis niger (A.n.); assay: Growth of fungus on polyvinyl chloride film; type: cell-based; parameters: key: 0: zero (no growth); 5: five (heavy growth); settings: PVC film, 0.05%
Measurement type: Growth on Film

[[record]]
compound = "CCCCCCCn1sc(Cl)c(Cl)c1=O [Compound 6]"
study_system = "Aspergillis niger (A.n.)"
result = 0

[[record]]
compound = "O=c1c(Cl)c(Cl)sn1CCc1ccccc1 [Compound 3]"
study_system = "Aspergillis niger (A.n.)"
result = 1

[[record]]
compound = "CCCCCCn1sc(Cl)c(Cl)c1=O [Compound 4]"
study_system = "Aspergillis niger (A.n.)"
result = 0

[[record]]
compound = "O=c1c(Cl)c(Cl)sn1Cc1ccccc1 [Compound 2]"
study_system = "Aspergillis niger (A.n.)"
result = 4

[[record]]
compound = "CCCCCCCCn1sc(Cl)c(Cl)c1=O [Compound 5]"
study_system = "Aspergillis niger (A.n.)"
result = 5

[[record]]
compound = "O=c1c(Cl)c(Cl)sn1C1CCCCC1 [Compound 1]"
study_system = "Aspergillis niger (A.n.)"
result = 1


Values compiled from patent US4542169A.
